- experimental_conditions: 323.15 K; 10000 kPa; Liquid
property_label: mass density (kg/m3)

>  <compound>
CCCCCCCC[n+]1ccn(C)c1.F[B-](F)(F)F [1-methyl-3-octylimidazolium tetrafluoroborate]

>  <property_label>
mass density

>  <result>
1090.6

$$$$
>  <compound>
CCCCCCCC[n+]1ccn(C)c1.F[P-](F)(F)(F)(F)F [1-octyl-3-methylimidazolium hexafluorophosphate]

>  <property_label>
mass density

>  <result>
1223.4

$$$$
>  <compound>
CCCCn1cc[n+](C)c1C.F[P-](F)(F)(F)(F)F [1-butyl-2,3-dimethylimidazolium hexafluorophosphate]

>  <property_label>
mass density

>  <result>
1336.2

$$$$
>  <compound>
CCCCn1cc[n+](C)c1.F[B-](F)(F)F [1-butyl-3-methylimidazolium tetrafluoroborate]

>  <property_label>
mass density

>  <result>
1187.8

$$$$
>  <compound>
CCCCn1cc[n+](C)c1.O=S(=O)([O-])C(F)(F)F [1-butyl-3-methylimidazolium trifluoromethanesulfonate]

>  <property_label>
mass density

>  <result>
1285

$$$$
>  <compound>
CCCCCCn1cc[n+](C)c1.F[P-](F)(F)(F)(F)F [1-hexyl-3-methylimidazolium hexafluorophosphate]

>  <property_label>
mass density

>  <result>
1278.5

$$$$

* * *

- experimental_conditions: 393.15 K; 5000 kPa; Liquid
mass density by entry:
property_label: mass density (kg/m3)

>  <compound>
CCCCn1cc[n+](C)c1.O=S(=O)([O-])C(F)(F)F [1-butyl-3-methylimidazolium trifluoromethanesulfonate]

>  <property_label>
mass density

>  <units_text>
kg/m3

>  <result>
1229.1

$$$$
>  <compound>
CCCCCCn1cc[n+](C)c1.F[P-](F)(F)(F)(F)F [1-hexyl-3-methylimidazolium hexafluorophosphate]

>  <property_label>
mass density

>  <units_text>
kg/m3

>  <result>
1223.3

$$$$
>  <compound>
CCCCCCCC[n+]1ccn(C)c1.F[B-](F)(F)F [1-methyl-3-octylimidazolium tetrafluoroborate]

>  <property_label>
mass density

>  <units_text>
kg/m3

>  <result>
1044.1

$$$$
>  <compound>
CCCCn1cc[n+](C)c1.F[B-](F)(F)F [1-butyl-3-methylimidazolium tetrafluoroborate]

>  <property_label>
mass density

>  <units_text>
kg/m3

>  <result>
1139

$$$$
>  <compound>
CCCCn1cc[n+](C)c1C.F[P-](F)(F)(F)(F)F [1-butyl-2,3-dimethylimidazolium hexafluorophosphate]

>  <property_label>
mass density

>  <units_text>
kg/m3

>  <result>
1279.4

$$$$
>  <compound>
CCCCCCCC[n+]1ccn(C)c1.F[P-](F)(F)(F)(F)F [1-octyl-3-methylimidazolium hexafluorophosphate]

>  <property_label>
mass density

>  <units_text>
kg/m3

>  <result>
1169.8

$$$$

* * *

- experimental_conditions: 303.15 K; 3000 kPa; Liquid

>  <compound>
CCCCCCCC[n+]1ccn(C)c1.F[P-](F)(F)(F)(F)F [1-octyl-3-methylimidazolium hexafluorophosphate]

>  <mass density [kg/m3]>
1235.6

$$$$
>  <compound>
CCCCn1cc[n+](C)c1.O=S(=O)([O-])C(F)(F)F [1-butyl-3-methylimidazolium trifluoromethanesulfonate]

>  <mass density [kg/m3]>
1298.3

$$$$
>  <compound>
CCCCCCCC[n+]1ccn(C)c1.F[B-](F)(F)F [1-methyl-3-octylimidazolium tetrafluoroborate]

>  <mass density [kg/m3]>
1102.1

$$$$
>  <compound>
CCCCn1cc[n+](C)c1.F[B-](F)(F)F [1-butyl-3-methylimidazolium tetrafluoroborate]

>  <mass density [kg/m3]>
1200.1

$$$$
>  <compound>
CCCCCCn1cc[n+](C)c1.F[P-](F)(F)(F)(F)F [1-hexyl-3-methylimidazolium hexafluorophosphate]

>  <mass density [kg/m3]>
1292.2

$$$$
